Reference source for all entries: the supplement of paper PMC7125110

B1: glmS ribozyme (parent)
chain: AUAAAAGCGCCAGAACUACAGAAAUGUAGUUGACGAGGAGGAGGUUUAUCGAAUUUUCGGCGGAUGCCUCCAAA

# Variants of: B1
# EXPERIMENTAL_DETAILS: self-cleavage kobs at 10000 uM GlcN6P; higher = faster cleavage; RNA array
# CONDITION_DESCRIPTION: with glucosamine-6-phosphate
Variants at the floor of the assay were thinned out.
PROPERTY: self-cleavage kobs at 10000 uM GlcN6P

The following variants have reported results that may help.
1) A36U G59U G60C | < 1e-05 s⁻¹
2) A64G G66C C67A | 0.000252 s⁻¹
3) A14C U69G | 3.03e-05 s⁻¹

Exercise: Recall and state the measured self-cleavage kobs at 10000 uM GlcN6P for C34G G51C .
Solution: < 1e-05 s⁻¹

Exercise: Look up and report measured self-cleavage kobs at 10000 uM GlcN6P for this entry: C8A C11U
Solution: < 1e-05 s⁻¹

Exercise: # return recorded self-cleavage kobs at 10000 uM GlcN6P for entry A14C A39U G41U U65G
Solution: < 1e-05 s⁻¹

Exercise: Supply recorded self-cleavage kobs at 10000 uM GlcN6P for C8G C70A here.
Solution: < 1e-05 s⁻¹
